TARGET: E129N mutant 5-HT3 receptor (mouse 5-HT3A subunit) (Mus musculus, UniProt P23979, E129N)
Sequence (P23979 24-483 isoform P23979-2 E129N limits assumed): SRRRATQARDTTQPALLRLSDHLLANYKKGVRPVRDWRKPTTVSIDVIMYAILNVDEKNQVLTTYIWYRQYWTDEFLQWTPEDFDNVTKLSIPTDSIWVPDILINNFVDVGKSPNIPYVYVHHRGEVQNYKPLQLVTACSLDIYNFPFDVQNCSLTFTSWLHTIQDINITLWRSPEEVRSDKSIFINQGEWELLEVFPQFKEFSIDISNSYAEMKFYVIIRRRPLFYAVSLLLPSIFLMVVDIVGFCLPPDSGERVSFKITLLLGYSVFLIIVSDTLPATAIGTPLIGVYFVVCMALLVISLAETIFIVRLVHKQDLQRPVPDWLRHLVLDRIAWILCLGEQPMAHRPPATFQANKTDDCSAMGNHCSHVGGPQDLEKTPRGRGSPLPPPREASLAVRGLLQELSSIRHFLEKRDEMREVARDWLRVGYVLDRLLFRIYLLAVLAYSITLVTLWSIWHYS
PROTOCOL TEXT: Agonist-induced currents, voltage clamp electrophysiology in Xenopus oocytes
Assay type: cell-based
CONDITION INFO: E129N
EXPERIMENTAL READOUT: EC50
Include the unit after the number when you answer.

Annotate the compound N=C(N)NC(=N)Nc1cccc(Cl)c1 [mCPBG, m-chlorophenylbiguanide] with its measured EC50.
0.62 µM

* * *

TARGET: WT 5-HT3 receptor (mouse 5-HT3A subunit) (Mus musculus, UniProt P23979)
PROTOCOL TEXT: Agonist-induced currents, voltage clamp electrophysiology in Xenopus oocytes
Type: cell-based
CONDITION INFO: pEC50, WT; oocytes, holding potential −60 mV
EXPERIMENTAL READOUT: EC50
Include the unit after the number when you answer.

[[record]]
compound = "NCCc1c[nH]c2ccccc12 [tryptamine]"
test_result = "117 µM"


# next compound below
Annotate the compound NCCc1c[nH]c2ccc(F)cc12 [5-FT, 5-fluorotryptamine] with its measured EC50.
17.8 µM

* * *

TARGET: N128R mutant 5-HT3 receptor (mouse 5-HT3A subunit) (Mus musculus, UniProt P23979, N128R)
PROTOCOL TEXT: Agonist-induced currents, voltage clamp electrophysiology in Xenopus oocytes
CONDITION INFO: SR = small (<100 nA) responses
EXPERIMENTAL READOUT: pEC50
FYI, pEC50 means -log10 of a concentration in mol per litre.

Annotate the compound N=C(N)NC(=N)Nc1cccc(Cl)c1 [mCPBG, m-chlorophenylbiguanide] with its measured pEC50.
5.14

* * *

TARGET: E129N mutant 5-HT3 receptor (mouse 5-HT3A subunit) (Mus musculus, UniProt P23979, E129N)
Sequence (P23979 24-483 isoform P23979-2 E129N limits assumed): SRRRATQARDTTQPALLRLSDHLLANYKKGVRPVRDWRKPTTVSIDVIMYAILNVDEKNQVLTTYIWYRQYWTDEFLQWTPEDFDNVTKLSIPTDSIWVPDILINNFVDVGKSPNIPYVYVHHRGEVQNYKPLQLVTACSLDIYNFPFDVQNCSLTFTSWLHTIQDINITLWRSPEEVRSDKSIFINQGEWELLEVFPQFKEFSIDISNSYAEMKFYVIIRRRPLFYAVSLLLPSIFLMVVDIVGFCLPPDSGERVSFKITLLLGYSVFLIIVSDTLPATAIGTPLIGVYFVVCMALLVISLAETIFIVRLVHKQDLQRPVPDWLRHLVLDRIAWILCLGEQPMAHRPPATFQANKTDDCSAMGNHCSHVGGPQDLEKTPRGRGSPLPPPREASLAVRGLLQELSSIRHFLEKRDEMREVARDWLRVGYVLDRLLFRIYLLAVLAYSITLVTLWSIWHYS
PROTOCOL TEXT: Agonist-induced currents, voltage clamp electrophysiology in Xenopus oocytes
Format: cell-based
EXPERIMENTAL READOUT: EC50 (µM)
Record the value in µM, omitting the unit from your answer.

Annotate the compound NCCc1c[nH]c2ccc(F)cc12 with its measured EC50.
11.7

* * *

TARGET: N128-Akp mutant 5-HT3 receptor (mouse 5-HT3A subunit) (Mus musculus)
Sequence (Q6J1J7 24-483, change not shown): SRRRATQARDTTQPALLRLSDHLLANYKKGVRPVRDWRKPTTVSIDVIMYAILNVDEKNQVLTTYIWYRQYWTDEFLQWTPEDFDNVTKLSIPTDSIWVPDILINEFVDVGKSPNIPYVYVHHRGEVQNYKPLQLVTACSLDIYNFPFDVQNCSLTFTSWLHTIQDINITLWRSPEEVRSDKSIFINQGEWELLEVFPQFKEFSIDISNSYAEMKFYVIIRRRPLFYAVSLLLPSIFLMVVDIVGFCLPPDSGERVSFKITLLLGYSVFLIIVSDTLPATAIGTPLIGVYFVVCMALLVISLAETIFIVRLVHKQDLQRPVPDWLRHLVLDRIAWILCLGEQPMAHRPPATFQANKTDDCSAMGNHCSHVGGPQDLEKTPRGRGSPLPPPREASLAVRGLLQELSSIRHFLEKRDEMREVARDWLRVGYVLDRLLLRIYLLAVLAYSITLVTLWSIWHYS
PROTOCOL TEXT: Agonist-induced currents, voltage clamp electrophysiology in Xenopus oocytes
EXPERIMENTAL READOUT: EC50 (µM)
Record the value in µM, omitting the unit from your answer.

Annotate the compound NCCc1c[nH]c2ccc(O)cc12 [5-HT, 5-hydroxytryptamine] with its measured EC50.
4.6

* * *

TARGET: N128-Nha mutant 5-HT3 receptor (mouse 5-HT3A subunit)
PROTOCOL TEXT: Agonist-induced currents, voltage clamp electrophysiology in Xenopus oocytes
CONDITION INFO: SR = small (<100 nA) responses
EXPERIMENTAL READOUT: EC50 (nM)
Record the value in nM, omitting the unit from your answer.

Annotate the compound N=C(N)NC(=N)Nc1cccc(Cl)c1 [mCPBG, m-chlorophenylbiguanide] with its measured EC50.
2800

* * *

TARGET: WT 5-HT3 receptor (mouse 5-HT3A subunit) (Mus musculus)
Sequence (P23979 24-483 isoform P23979-2 limits assumed): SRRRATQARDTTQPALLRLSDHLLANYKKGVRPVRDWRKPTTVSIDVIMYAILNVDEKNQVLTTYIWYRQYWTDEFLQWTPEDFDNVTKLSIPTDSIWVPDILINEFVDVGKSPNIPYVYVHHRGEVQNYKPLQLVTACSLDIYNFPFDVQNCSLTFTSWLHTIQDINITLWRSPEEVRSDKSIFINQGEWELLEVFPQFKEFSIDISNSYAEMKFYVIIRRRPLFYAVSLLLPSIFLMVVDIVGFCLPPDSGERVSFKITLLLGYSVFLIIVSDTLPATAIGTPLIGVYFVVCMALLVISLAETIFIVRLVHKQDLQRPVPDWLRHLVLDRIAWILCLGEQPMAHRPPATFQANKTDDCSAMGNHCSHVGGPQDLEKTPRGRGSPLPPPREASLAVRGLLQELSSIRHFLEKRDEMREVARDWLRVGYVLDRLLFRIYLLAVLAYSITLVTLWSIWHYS
PROTOCOL TEXT: Agonist-induced currents, voltage clamp electrophysiology in Xenopus oocytes
Format: cell-based
CONDITION INFO: WT
EXPERIMENTAL READOUT: nH (Hill coefficient)
Lab note: jot the number down without any unit.

Observe how each entry below is paired with its result.
[[record]]
compound = "N=C(N)NC(=N)Nc1cccc(Cl)c1 [mCPBG, m-chlorophenylbiguanide]"
test_result = 2.03

[[record]]
compound = "NCCc1c[nH]c2ccc(O)cc12 [5-HT, 5-hydroxytryptamine]"
test_result = 2.54

[[record]]
compound = "NCCc1c[nH]c2ccccc12 [tryptamine]"
test_result = 2.86


# next compound below
Annotate the compound NCCc1c[nH]c2ccc(F)cc12 [5-FT, 5-fluorotryptamine] with its measured nH (Hill coefficient).
2.71

* * *

TARGET: E129A mutant 5-HT3 receptor (mouse 5-HT3A subunit) (Mus musculus, UniProt P23979, E129A)
PROTOCOL TEXT: Agonist-induced currents, voltage clamp electrophysiology in Xenopus oocytes
CONDITION INFO: NR = no response
pEC50: −log10 of the molar value.
EXPERIMENTAL READOUT: pEC50

Give pEC50 for this entry on E129A mutant 5-HT3 receptor (mouse 5-HT3A subunit) (Mus musculus, UniProt P23979, E129A): N=C(N)NC(=N)Nc1cccc(Cl)c1 [mCPBG, m-chlorophenylbiguanide]
< 4.00

* * *

TARGET: E129H mutant 5-HT3 receptor (mouse 5-HT3A subunit) (Mus musculus, UniProt P23979, E129H)
PROTOCOL TEXT: Agonist-induced currents, voltage clamp electrophysiology in Xenopus oocytes
EXPERIMENTAL READOUT: pEC50
FYI, pEC50 means -log10 of a concentration in mol per litre.

Annotate the compound N=C(N)NC(=N)Nc1cccc(Cl)c1 [mCPBG, m-chlorophenylbiguanide] with its measured pEC50.
6.43

* * *

TARGET: E129D mutant 5-HT3 receptor (mouse 5-HT3A subunit) (Mus musculus, UniProt P23979, E129D)
PROTOCOL TEXT: Agonist-induced currents, voltage clamp electrophysiology in Xenopus oocytes
Format: cell-based
EXPERIMENTAL READOUT: EC50 (µM)
Record the value in µM, omitting the unit from your answer.

Annotate the compound NCCc1c[nH]c2ccc(F)cc12 with its measured EC50.
8.3

* * *

TARGET: N128D mutant 5-HT3 receptor (mouse 5-HT3A subunit) (Mus musculus, UniProt P23979, N128D)
PROTOCOL TEXT: Agonist-induced currents, voltage clamp electrophysiology in Xenopus oocytes
Format: cell-based
CONDITION INFO: N128D
EXPERIMENTAL READOUT: pEC50
FYI, pEC50 means -log10 of a concentration in mol per litre.

Annotate the compound N=C(N)NC(=N)Nc1cccc(Cl)c1 [mCPBG, m-chlorophenylbiguanide] with its measured pEC50.
6.57
